assay: Retention time of the compound in 30 to 100% ACN/Water/0.1%TFA by RP-HPLC analysis; assay type: physicochemical; details: buffer
Entries and their measured Retention_time follow.
readout.kind: Retention_time (min)

{"columns": ["molecule", "readout.kind", "value.unit", "number"],
 "data": [
  ["O=C(O)/C(Cc1ccccc1[N+](=O)[O-])=N/Nc1nc(-c2ccc3ccccc3c2)cs1", "Retention_time", "min", 11.72],
  ["O=C(O)/C(Cc1ccccc1[N+](=O)[O-])=N\\Nc1nc(-c2ccc(Br)cc2)cs1", "Retention_time", "min", 12.48],
  ["O=C(O)/C(Cc1ccc(C(=O)O)cc1[N+](=O)[O-])=N/Nc1nc(-c2ccc(Cl)c(Cl)c2)cs1", "Retention_time", "min", 11.814],
  ["Nc1ccc(C/C(=N/Nc2nc(-c3ccc(Cl)c(Cl)c3)cs2)C(=O)O)cc1[N+](=O)[O-]", "Retention_time", "min", 15.09],
  ["[N-]=[N+]=Nc1ccc(-c2csc(N/N=C(\\Cc3ccccc3[N+](=O)[O-])C(=O)O)n2)cc1", "Retention_time", "min", 11.722],
  ["O=C(O)/C(Cc1ccccc1[N+](=O)[O-])=N\\Nc1nc(-c2ccc(N3CCCC3)cc2)cs1 (mixture of isomers)", "Retention_time", "min", 8.828],
  ["Nc1ccc(C/C(=N/Nc2nc(-c3ccc(Cl)c(Cl)c3)cs2)C(=O)O)cc1", "Retention_time", "min", 5.328],
  ["Nc1ccc(C/C(=N\\Nc2nc(-c3ccc(Cl)c(Cl)c3)cs2)C(=O)O)cc1[N+](=O)[O-]", "Retention_time", "min", 12.3],
  ["[N-]=[N+]=Nc1ccc(-c2csc(N/N=C(/Cc3ccccc3[N+](=O)[O-])C(=O)O)n2)cc1", "Retention_time", "min", 13.435],
  ["O=C(O)/C(Cc1ccc(Br)cc1[N+](=O)[O-])=N/Nc1nc(-c2ccc(Cl)c(Cl)c2)cs1", "Retention_time", "min", 15.542],
  ["O=C(O)/C(Cc1ccccc1[N+](=O)[O-])=N/Nc1nc(-c2ccc(Br)cc2)cs1", "Retention_time", "min", 10]
]}

====

molecular target: Eukaryotic translation initiation factor 4E (Homo sapiens); assay: Binding affinity to human full length recombinant GST-tagged eIF4E expressed in Escherichia coli BL21(DE3) by intrinsic tryptophan fluorescence quenching method
Sequence (P06730 whole entry): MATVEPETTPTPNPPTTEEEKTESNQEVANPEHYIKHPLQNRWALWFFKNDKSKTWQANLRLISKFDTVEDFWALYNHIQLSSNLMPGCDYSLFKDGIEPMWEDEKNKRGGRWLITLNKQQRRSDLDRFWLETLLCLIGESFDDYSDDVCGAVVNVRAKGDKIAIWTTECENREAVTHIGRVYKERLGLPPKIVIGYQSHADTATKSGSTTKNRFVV

{"columns": ["compound.structure", "Kd / µM"],
 "data": [
  ["O=C(O)/C(Cc1ccccc1[N+](=O)[O-])=N\\Nc1nc(-c2ccc(O)cc2)cs1", 36.6],
  ["Nc1ccc(C/C(=N/Nc2nc(-c3ccc(Cl)c(Cl)c3)cs2)C(=O)O)cc1[N+](=O)[O-]", 5.01]
]}

====

assay: Retention time of the compound in 0 to 70% ACN/Water/0.1%TFA by RP-HPLC analysis; type: physicochemical; details: buffer

{"columns": ["compound.structure", "Retention_time / min"],
 "data": [
  ["O=C(O)/C(Cc1ccccc1[N+](=O)[O-])=N/Nc1nc(-c2ccc(C(=O)O)cc2)cs1", 14.54],
  ["O=C(O)/C(Cc1ccccc1[N+](=O)[O-])=N/Nc1nc(-c2ccc(O)cc2)cs1", 16.48],
  ["Nc1ccc(-c2csc(N/N=C(\\Cc3ccccc3[N+](=O)[O-])C(=O)O)n2)cc1", 11.06],
  ["O=C(O)/C(Cc1ccccc1[N+](=O)[O-])=N\\Nc1nc(-c2ccc(O)cc2)cs1", 16.47],
  ["O=C(O)/C(Cc1ccccc1[N+](=O)[O-])=N\\Nc1nc(-c2ccccc2)cs1", 12.958],
  ["Nc1ccc(-c2csc(N/N=C(/Cc3ccccc3[N+](=O)[O-])C(=O)O)n2)cc1", 12.98],
  ["O=C(O)/C(Cc1ccccc1[N+](=O)[O-])=N\\Nc1nc(-c2ccc(C(=O)O)cc2)cs1", 16.77]
]}
